B1: library; a variant is named by its letters at X, in order (parent)
chain: MNIQIGELAKRTACPVVTIRFYEQEGLLPPPGRSRGNFRLYGEEHVERLQFIRHCRSLDMPLSXVRTLLSYRKRPDQDCGEVXMLLDEHIRQVESRIGALLELXHHXVELREACSGARPAQSCGILQXLSXCVCXTRGTTAHXSD

Variants of: B1
METHOD: sfGFP reporter fluorescence (15 h) (µM FITC); higher = stronger transcriptional activation
TEST_CONTEXT: library round: Round 3; ligand: 30 µM Zn
// sfGFP reporter fluorescence lookup, one value per entry

- SEQUENCE_DATA: "MNIQIGELAKRTACPCVTIRFYEQEGLLPPPGRSRGNFRLYGEEHVERLQFIRCPRSLDMPLSLVRTLLSYRKRPDQDCGEVCMLLDEHIRQVESRIGALLELKHLCVELREACSGARPAQSCGILQGLSACVCATRGTTAHPSD [LCKCGAAP V16C H54C C55P H106L]"
  sfGFP reporter fluorescence: 0.0492
- SEQUENCE_DATA: "MNIQIGELAKRTACPVVTIRFYEQEGLLPPPGRSRGNFRLYGEEHVERLQFIRHCRSLDMPLSDVRTLLSYRKRPDQDCGEVTMLLDEHIRQVESRIGALLELKHHLVELREACSGARPAASCGILQGLSACVCPTRGTTAHLSD [DTKLGAPL Q121A]"
  sfGFP reporter fluorescence: 0.407
- SEQUENCE_DATA: "MNIQIGELAKRTACPVVTIRFYEQEGLLPPPGRSRGNFRLYGEEHVERLQFIRHCRSLDMPISKVRTLLSYRKRPDQDCGEVIMLLDEHIRQVESRIGALLELVHHLVELREACSGARPAQSCGILQGLSDCVCDTRGTTAHRSD [KIVLGDDR L62I]"
  sfGFP reporter fluorescence: 0.0996
- SEQUENCE_DATA: "MNIQIGELAKRTACPCVTIRFYEQEGLLPPPGRSRGNFRLYGEEHVERLQFIRHCRSLDMPLSKVRTLLSYRKRPDQDCGEVNMLLDEHIRQVESRIGALLELVHHCVELREACSGARPAQSCGILQMLSDCVCDTRGTTAHPSD [KNVCMDDP V16C]"
  sfGFP reporter fluorescence: 3.28
- SEQUENCE_DATA: "MNIQIGELAKRTACPVVTIRFYEQEGLLPPPGRSRGNFRLYGEEHVERLQFIRHCRSLDMPLSDVRTLLSYRKRPDQDCGEVTMLLDEHIRQVESRIGALLELKHHLLELREACSGARPAASCGILQGLSSCVCPTRGTTAHPSD [DTKLGSPP V108L Q121A]"
  sfGFP reporter fluorescence: 0.337
- SEQUENCE_DATA: "MNIQIGELAKRTACPVVTIRFYEQEGLLPPPGRSRGNFRLYGEEHVERLQFIRCPRSLDMPLSLVRTLLSYRKRPDQDCGEVIMLLDEHIRQVESRIGALLELKHLCVELREACSGARPAQSCGILQGLSACVCATRGTTAHPSD [LIKCGAAP H54C C55P H106L]"
  sfGFP reporter fluorescence: 0.0486
- SEQUENCE_DATA: "MNIQIGELAKRTACPCVTIRFYEQEGLLPPPGRSRGNFRLYGEEHVERLQFIRHCRSLDMNLSDVRTLLSYRKRPDQDCGEVNMLLDEHIRQVESRIGALLELVHHCVELREACSGARPAQSCGILQMLSDCVCDTRGTTAHPSD [DNVCMDDP V16C P61N]"
  sfGFP reporter fluorescence: 0.463
- SEQUENCE_DATA: "MNIQIGELAKRTACPCVTIRFYEQEGLLPPPGRSRGNFRLYGEEHVERLQFIRCPRSLDMPLSLVRTLLSYRKRPDQDCGEVIMLLDEHIRQVESRIGALLELVHLCVELREACSGARPAQSCGILQGLSACVCATRGTTAHPSD [LIVCGAAP V16C H54C C55P H106L]"
  sfGFP reporter fluorescence: 0.0473
- SEQUENCE_DATA: "MNIQIGELAKRTACPVVTIRFYEQEGLLPPPGRSRGNFRLYGEEHVERLQFIRHCRSLDMPLSKVRTLLSYRKRPDQDCGEVFMLLDEHIRQVESRIGALLELVHALVELREACSGARPAQSCGILQGLSDCVCDTRGTTAHTSD [KFVLGDDT H106A]"
  sfGFP reporter fluorescence: 0.095
- SEQUENCE_DATA: "MNIQIGELAKRTACPVVTIRFYEQEGLLPPPGRSRGNFRLYGEEHVERLQFIRHCRSLDLPLSKVRTLLSYRKRPDQDCGEVNMLLDEHIRQVESRIGALLELVHHCVELREACSGARPAQSCGILQGLSACVCDTRGTTAHPSD [KNVCGADP M60L]"
  sfGFP reporter fluorescence: 3.01
- SEQUENCE_DATA: "MNIQIGELAKRTACPVVTIRFYEQEGLLPPPGRSRGNFRLYGEEHVERLQFIRHCRSLDMPLSDVRTLLSYRKRPDQDCGEVNMLLDEHIRQVESRIGALLELRHHLVLLREACSGARPAQSCGILQHLSCCVCDTRGTTAHLSD [DNRLHCDL E109L]"
  sfGFP reporter fluorescence: 0.23

Taken from the supplement of paper PMC12783771.
